So I've got a bunch of compounds here, and I need their TGI values.
- System: SF-295 CNS
- method: NCI tumour cell line growth inhibition, 48 h

Please report TGI with SF-295 CNS for item NC(N)=N/N=C(\N=Nc1ccccc1)c1ccc(Cl)cc1 .
6.39 µM

Answer with TGI of N#Cc1cc2c(cc1Cl)Sc1nnc(Nc3ccccc3)n1S2(=O)=O measured for SF-295 CNS.
9.2 µM

Would you please give the reported TGI of O=C1CCSCCC(=O)Nc2ccccc2N1 with SF-295 CNS?
> 100 µM

Enter TGI (test system SF-295 CNS) for COc1ccc(C2(CC(C)C)CCN(S(=O)(=O)c3ccc(C)cc3)C2)cc1OC (stereo unspecified)
> 100 µM

# assay system SF-295 CNS: give TGI of COc1ccc(-c2cc(Nc3ccnc(N4CCOCC4)n3)on2)cc1
5.95 µM

Under SF-295 CNS: report TGI of COc1ccc2nc3cc(Cl)ccc3c(Sc3ccc(NC(C)=O)cc3)c2c1 .
> 51.2 µM

Answer briefly: TGI recorded on SF-295 CNS for CC(=O)NC1C(Sc2ncn(C3OC(CO)C(O)C(O)C3NC(C)=O)n2)OC(CO)C(O)C1O (stereo unspecified)
> 100 µM

Look up and report measured TGI (SF-295 CNS) for the following compound: CC(=O)OC(CCC1(C)OC1COc1ccc(CCNC(=O)C=C(C)C)cc1)C(C)(C)OC(C)=O (stereo unspecified)
> 100 µM

For SF-295 CNS, give TGI of the listed compound: CNC(C)[C@H]1CCC2C3CC=C4C(=O)[C@@H](NC(=O)C=C(C)C)CC[C@]4(C)C3CC[C@@]21C (stereo partly specified)
4.41 µM

Would you please give the reported TGI of CC1COS(=O)O1 (stereo unspecified) with SF-295 CNS?
> 100 µM

Enter TGI (test system SF-295 CNS) for COc1cc(OC)c2sc(-c3ccc(-n4cncc4-c4cc(OC)c(OC)c(OC)c4)cc3)nc2c1
> 100 µM

----------
- System: 786-0 renal
- method: NCI tumour cell line growth inhibition, 48 h
Provide the recorded TGI for the entries that follow.
Numeric answer only, unit µM assumed.

Give me measured TGI, please, for this compound: CNCCn1c(=O)c2cc(OC)c(OC)cc2c2cnc3cc4c(cc3c21)OCO4
0.0168

Quote TGI reported for Cc1c2c(C(N)=O)nccc2c(C)c2c1c1ccccc1n2Cc1ccccc1 please.
15.9

Return reported TGI. Input compound: CC(=O)c1c(N=[N+]=[N-])c2cccc3c2n(c1=O)CCC3
33.5

Please report the measured TGI for NCCCN(CCCN)CCc1cn(C(=O)c2ccccc2)cn1
25.6

Answer with reported TGI of COc1cc(C(=O)O[C@H](C(N)=O)[C@]2(C)CO2)c2cccc(C)c2c1
5.75

Provide TGI value for the following compound: CCOC(=O)C(Cc1ccc(O)cc1)Nc1nc(=O)c2c(=O)oc(Cl)cc2o1 (configuration not stated)
22.3

Quickly give me recorded TGI for COc1ccc2c(c1)C(C)Cc1c(ncnc1-n1cnc3ccccc31)N2C (configuration not stated)
19.6

Input O=C(Cn1c2ccc(Br)cc2c2nc3ccccc3nc21)NNC(=S)NC1CCCCC1 , output reported TGI.
28.9

Supply recorded TGI for NCCCOc1cc(Cl)ccc1NC(=O)c1cc2ccccc2cc1OCCCN here.
3.08

State its TGI: COc1cc2c3c(n(CCCN(CCO)CCO)c(=O)c2cc1OC)-c1cc2c(cc1C3=O)OCO2
0.0646
